tested on: C. acnes strain K8; experiment: Minimum inhibitory concentration (MIC) of cosmetic excipients, strain K8; assay type: cell-based, Cutibacterium acnes; details: % w/vol, incubated anaerobically for 3 days at 37° C., scored visually for growth
measuredParameter: COMPATABILITY VALUE K8 [%] (%)
I only need the number, in %, no unit after it.

molecule: CC(=O)Oc1c(C)c(C)c2c(c1C)CCC(C)(CCC[C@H](C)CCC[C@H](C)CCCC(C)C)O2 (some centres unmarked) [tocopheryl acetate]
unitLabel: %
measuredValue: 1.00

Incoming: Report COMPATABILITY VALUE K8 [%] for `CC(CO)CO` please.
Outgoing: 4.00

Incoming: Any idea what COMPATABILITY VALUE K8 [%] was measured for CCCCCCC(O)CO (centres unmarked) ?
Outgoing: 0.18

Incoming: Please look up its COMPATABILITY VALUE K8 [%]: `CCO`
Outgoing: 3.75

Incoming: So what's the measured COMPATABILITY VALUE K8 [%] for this one? `O=C(O)CC(O)(CC(=O)O)C(=O)O`
Outgoing: 0.08
